tested on: Fibroblast; experiment: Multiplex assay against human fibroblast; assay type: toxicity, cell-based; settings: 48 h, 10 µM, compound concentration 10 uM, replicate 2
Readout type: Population Normal (%)
Unit % implied. Number only.

In: Name the recorded Population Normal (%) of the compound listed here: O=S(=O)(c1ccccc1)c1cnc2c(N3CCNCC3)cccc2c1 [INTEPIRDINE]
Out: 93

In: Please report the measured Population Normal (%) for "Cc1ccc(/C(=C\CN2CCCC2)c2ccccn2)cc1"
Out: 94

In: Answer with reported Population Normal (%) of "C[C@H]1[C@H]2CC[C@H]3[C@@H]4CC=C5C[C@@H](N(C)C)CC[C@]5(C)[C@H]4CC[C@]23CN1C"
Out: 97

Each recorded value in this set is attributed to ChEMBL document CHEMBL5058577.
